B1: TPR 5TU (parent)
chain: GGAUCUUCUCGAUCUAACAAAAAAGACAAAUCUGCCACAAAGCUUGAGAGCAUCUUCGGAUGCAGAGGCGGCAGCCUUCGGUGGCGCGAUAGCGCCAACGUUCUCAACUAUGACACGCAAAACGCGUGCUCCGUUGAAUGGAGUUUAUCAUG

Variants of: B1
Assay summary: polymerase ribozyme fitness, log enrichment relative to wild type (log ratio); higher = more active; in vitro selection for triplet polymerase activity
Variants at the floor of the assay were thinned out.
Reported property: polymerase ribozyme fitness (log ratio)

Some entries whose results are on file:
Entry under review: G100A G124A . Reported polymerase ribozyme fitness (log ratio)?
≤ -4.2

What value of measured polymerase ribozyme fitness (log ratio) is listed for U53A G84U ?
-1.26

Give the measured polymerase ribozyme fitness (log ratio) of G92C A98U G143A .
-1.77

I'd like to know its polymerase ribozyme fitness (log ratio). The variant in question is C95U C132A
-2.32

Please look up its polymerase ribozyme fitness (log ratio): A39G G42C A64U G84C C85U C103G C108U G117C A147G
≤ -4.2

Which polymerase ribozyme fitness (log ratio) is listed for A24C A37C G59A C99G A107U ?
≤ -4.2

Can you share its polymerase ribozyme fitness (log ratio)? I mean this variant: C14A A37U G50U G94U A106U
≤ -4.2

Please report the recorded polymerase ribozyme fitness (log ratio) for C93A A97G .
-3.37

For A19U C38U G50A C79A , what is its reported polymerase ribozyme fitness (log ratio)?
≤ -4.2

What does the record list as polymerase ribozyme fitness (log ratio) for A23G U101A ?
-3.18

State recorded polymerase ribozyme fitness (log ratio) for all listed variants.
1. A41C G67C G83A C95G G143A
2. G42A G83U A97U
3. G50A C116A
4. A41U C105G

["≤ -4.2", "≤ -4.2", -0.537, -1.73]

# return polymerase ribozyme fitness (log ratio) for each item in the list
1. A23U G80U A91U G143C A150G
2. U6A A47C G59U G81A C95G G141C
3. U31G C38G U101G U139C U146G
4. A12C A39U G88C A115C G126A

1: ≤ -4.2; 2: ≤ -4.2; 3: -4.03; 4: ≤ -4.2
